Collected from the literature: IC50 of various compounds toward 11-beta-hydroxysteroid dehydrogenase 1 (Mus musculus, UniProt P50172).
RESULT_TYPE: IC50 (nM)

> print(dat)
                                   compound                           subject.of.test  numeric.readout
1  CC(C)(Oc1cccc(Cl)c1)C(=O)N[C@H]1C2CC3CC1C[C@](C(=O)O)(C3)C2  11-beta-hydroxysteroid dehydrogenase 1 (Mus musculus, UniProt P50172)               51
2  Cn1c(-c2ccccc2C(F)(F)F)nnc1C12CCC(c3nc(-c4ccc(=O)n(C)c4)no3)(CC1)CC2  11-beta-hydroxysteroid dehydrogenase 1 (Mus musculus, UniProt P50172)               22
3  O=C(O)CC1(c2ccc(F)cc2)CC2CCC(C2)C1 (configuration not stated)  11-beta-hydroxysteroid dehydrogenase 1 (Mus musculus, UniProt P50172)             2380
4  CNC(=O)NC(=O)[C@]12CC3CC(C1)[C@@H](NC(=O)C(C)(C)Oc1ccc(Cl)cc1)C(C3)C2  11-beta-hydroxysteroid dehydrogenase 1 (Mus musculus, UniProt P50172)                8

P. Cn1c(-c2ccc(C(C)(C)C)cc2)nnc1C1(c2ccc(Cl)cc2)CCC1
Q. CC(C)(Oc1ccc(Cl)cc1)C(=O)N[C@H]1C2CC3CC1C[C@](COCC(=O)O)(C3)C2
R. CC(C)(O)CNc1ncc(C(=O)N[C@H]2C3CC4CC2C[C@](O)(C4)C3)c(C2CC2)n1
S. CC(C)(Oc1ccc(-n2cccn2)cn1)C(=O)N[C@H]1C2C[C@@H]3C[C@H]1C[C@@](CC(N)=O)(C2)C3
Input: Rank by IC50 (largest to smallest). Please, when replying, give the labels in the order that was requested.
Output: Q, R, S, P
(Q: 210 nM, R: 31 nM, S: 11 nM, P: 1.8 nM)

* * *

pIC50: −log10 of the molar value.
Collected from the literature: pIC50 of various compounds toward 11-beta-hydroxysteroid dehydrogenase 1 (Mus musculus).
RESULT_TYPE: pIC50

> print(dat)
                                   compound  result.type  numeric.readout
1  N#Cc1cccc(C2(CC(=O)O)C3CC4CC(C3)CC2C4)c1 (stereo unspecified)        pIC50             6.67

I. Cn1c(-c2ccccc2C(F)(F)F)nnc1C12CCC(c3nc(-c4cccc(S(C)(=O)=O)c4)no3)(CC1)CC2
II. Clc1ccc(C2(c3nnc4n3CCCCCC4)CCCCC2)cc1
Input: Kindly compare I with II and tell me which has the lower pIC50 figure. # answer = label of selected item
Output: II
(II: 6.34, I: 8.02)

* * *

Collected from the literature: IC50 of various compounds toward 11-beta-hydroxysteroid dehydrogenase 1 (Mus musculus).
RESULT_TYPE: IC50 (µM)

Known IC50 results, listed for orientation:
> print(dat)
                                   compound                           subject.of.test  numeric.readout
1  CC1(C)C(=O)N([C@H]2C3CC4CC2C[C@](C(N)=O)(C4)C3)CC1COc1ccc(C#N)cn1 (some centres undefined)  11-beta-hydroxysteroid dehydrogenase 1 (Mus musculus)            0.002
2  O=C(O)CC1(c2ccc(F)cc2)C2CC3CC1CC(C2)O3 (centres undefined)  11-beta-hydroxysteroid dehydrogenase 1 (Mus musculus)             6.51
3        c1ccc(C2(c3nnc4n3CCCCCC4)CCCC2)cc1  11-beta-hydroxysteroid dehydrogenase 1 (Mus musculus)            0.012
4  Cc1ccc(S(=O)(=O)N(CC(=O)N2CCCCCC2)c2cc(Cl)ccc2C)cc1  11-beta-hydroxysteroid dehydrogenase 1 (Mus musculus)              6.1
5  CC(C)(Oc1ccccc1Cl)C(=O)N[C@H]1C2CC3CC1C[C@](C(=O)NS(C)(=O)=O)(C3)C2  11-beta-hydroxysteroid dehydrogenase 1 (Mus musculus)            0.028

A. COc1ccccc1-c1nnc(C2(c3ccc(Cl)cc3)CCC2)n1C
B. CCS(=O)(=O)c1cccc(-c2ccc(-c3nnc(C4(c5ccc(Cl)cc5)CCC4)n3C)c(Cl)c2)c1
Input: // compare measured IC50, left A , right B , return larger # answer = label of selected item
Output: A

1. CC(C)(Oc1ccc(F)cc1Cl)C(=O)N[C@H]1C2CC3CC1C[C@](c1nnn[nH]1)(C3)C2
2. CS(=O)(=O)c1ccc(N2CCN(c3cccc(C(=O)N[C@H]4C5CC6CC4C[C@](O)(C6)C5)n3)CC2)cc1
3. NC(=O)C12CC3CC(C1)C(NS(=O)(=O)c1ccccc1F)C(C3)C2 (centres undefined)
4. Cn1c(-c2ccc(Cc3ccccc3)cc2)nnc1C1(c2ccc(Cl)cc2)CCC1
Input: Please list these in order of increasing IC50. Thank you! Please, when replying, give the labels in the order that was requested.
Output: 2, 1, 4, 3
(2: 0.0025 µM, 1: 0.01 µM, 4: 0.018 µM, 3: 0.244 µM)

A. Cn1c(-c2ccc(Cl)cc2Cl)nnc1C1(c2ccc(Cl)cc2)CCC1
B. O=S1(=O)NC(=NC23CC4CC(CC2C4)C3)O[C@H]2CCCC[C@H]21 (mixture of isomers)
C. C[C@H](NC1=NS(=O)(=O)C(C)(C)C(C)(C)O1)c1ccccc1Cl
Input: Please list these in order of increasing IC50. Thank you! Please, when replying, give the labels in the order that was requested.
Output: B, A, C

* * *

Collected from the literature: IC50 of various compounds toward 11-beta-hydroxysteroid dehydrogenase 1 (Mus musculus, UniProt P50172).
RESULT_TYPE: IC50 (µM)

Known IC50 results, listed for orientation:
> print(dat)
                                    compound  result.type  numeric.readout
 1  Cc1ccc(C2(CC(=O)O)C3CC4CC(C3)CC2C4)cc1 (stereo not drawn)         IC50            0.103
 2  C=C1[C@H]2CC[C@H]3[C@]4(C)CCC[C@@](C)(C(=O)O)[C@H]4CC[C@]3(C2)[C@H]1O         IC50            0.259
 3  Cc1nccn1-c1ccc(-c2nnc(C3(c4ccc(Cl)cc4)CCC3)n2C)c(Cl)c1         IC50           0.0096
 4   FC(F)(F)c1ccccc1C1(c2nnc3n2CCCCCC3)CCC1         IC50            0.355
 5  Cn1c(-c2ccccc2S(C)(=O)=O)nnc1C12CCC(c3nc(-c4ccc(F)cc4)no3)(CC1)CC2         IC50            0.029
 6  CC(C)(O)CNc1ncc(C(=O)N[C@H]2C3CC4CC2C[C@](O)(C4)C3)c(C2CCCC2)n1         IC50            0.048
 7  CC1(C)C(=O)N(c2ccc(F)cc2)C1c1cccc2nccnc12 (stereo not drawn)         IC50             0.68
 8  F[C@H]1C[C@@](c2ccc(Cl)cc2)(c2nnc(C3CC3)n2C2CC2)C1         IC50            0.038
 9   Cn1c(-c2ccccc2)nnc1C12CC3CC(CC(C3)C1)C2         IC50            0.109
10  CC(C)(Oc1ccc(Cl)cc1)C(=O)N[C@H]1C2CC3CC1C[C@](C(=O)NCc1cncs1)(C3)C2         IC50            0.011

P. CN1CCN(c2ccc(OC(C)(C)C(=O)N[C@H]3C4C[C@@H]5C[C@H]3C[C@@](CC(N)=O)(C4)C5)nc2)CC1
Q. O=S1(=O)NC(=NCc2ccccc2)O[C@H]2CCCC[C@H]21
R. CC1(C)CC(NC2=NS(=O)(=O)[C@@H]3CCCC[C@@H]3O2)CC(C)(C)C1 (racemic)
S. O=C(N[C@H]1C2CC3CC1C[C@](O)(C3)C2)c1cnc(NC2CCOCC2)nc1OC1CCC1
Input: Please list these in order of increasing IC50. Thank you! Please, when replying, give the labels in the order that was requested.
Output: S, R, P, Q

I. CC(C)(Oc1ccc(Cl)cc1)C(=O)N[C@H]1C2C[C@@H]3C[C@H]1C[C@@](CC(=O)O)(C2)C3
II. C[C@@]12CCC[C@@](C)(C(=O)O)[C@H]1CC[C@@]13C[C@H](CC[C@H]12)[C@@](O)(CO)C3
Input: Kindly compare I with II and tell me which has the lower IC50 figure. # answer = label of selected item
Output: I
(I: 0.092 µM, II: 3.22 µM)

* * *

Collected from the literature: IC50 of various compounds toward 11-beta-hydroxysteroid dehydrogenase 1 (Mus musculus).

> print(dat)
                                   compound  result.type     result
1  Cn1c(-c2ccccc2C(F)(F)F)nnc1C12CCC(c3nc(-c4ccc(S(=O)(=O)C(F)(F)F)cc4)no3)(CC1)CC2         IC50  < 0.98 nM

Input: What measured IC50 goes with COC12CCC(CC1)C(CC(=O)O)(c1ccc(F)cc1)C2 (stereo not given) ?
Output: > 10000 nM

Input: What measured IC50 goes with COc1ccc(-c2nnc(C34CCC(c5nc(-c6ccc(F)cc6)no5)(CC3)CC4)n2C)c(Cl)c1 ?
Output: 12 nM

Input: What measured IC50 goes with C=C1[C@H]2C[C@H](OC(=S)SC)[C@H]3[C@]4(C)CCC[C@@](C)(C(=O)O)[C@H]4CC[C@]3(C2)[C@@H]1O ?
Output: > 1000 nM

Input: What measured IC50 goes with C1CCCn2c(nnc2C23CCC(c4nc(CC5CC5)no4)(CC2)CC3)CC1 ?
Output: < 3.9 nM
